- Experimental Target: recombinant homotrimeric HA A/Anhui/1/05 H5N1 (Influenza A virus A/Anhui/1/2005(H5N1))
- Method Description: protein microarray, purified IgG, trimeric HA
- Test Parameters: remark: other sources report otherwise
Observed Property: Trimeric HA Binding: RLU (RLU)
Return type: number; implicit unit RLU.

Worked examples, 2 binders total:
INSERT INTO results (binder, endpoint_result) VALUES
  ('TCN-543 (5081_G23) (antibody, V domains shown) VH: QVHLVQSGAEVRKPGDSVKVSCKTSGYTFSTYPVAWVRQVPGQGLEWMGWISTYNGNTNFAQNFQGRVTLTTDTTTNTAYMEVRSLKFDDTAVYYCARVEGSYRDFWNNQNRFDPWGQGTLVTVSS VL: SYVLTQPPSVSVAPGQTARISCGGSNIGGKSVHWYQQKPGQAPVLVVYDDSGRPSGIPERFSGSNSGDTATLTISRVEAGDEADYFCQVWDNFGGVFGTGTKVTVL', 601),
  ('TCN-534 (5249_B02) (antibody, V domains shown) VH: QVQLVQSGAEVKKPGSSVKVSCRESGGTFNGYTITWVRQAPGQGLEWMGGIIPMMGTVNYAQKLQGRVTITTDYFTKTAYMDLNNLRSEDTAMYYCVKIRYTGQQLLWGQGTLVTVSS VL: DIQMTQSPSTLSASIGDRVTITCRASQSIASWLAWYQQKPGKAPKLLIYEAVNLESGVPSRFSGSGSGTDFTLTISSLQPDDFATYFCQHYGTISQTFGGGTKVEIK', 1900);

Next binder, Trimeric HA Binding: RLU to be filled in.
## Input Which measured Trimeric HA Binding: RLU value corresponds to TCN-531 (5091_H13) (antibody, V domains shown) VH: EVQLVESGGDLVQPGRSLKLSCTGSGFTFGDYGVTWVRQAPGKGLEWVGFIRTRPWGGTADTAASVKGRFTISRDDSKSLAYLQMNSLKTEDTAVYYCCRDAPPNVEVASMTNWYFDLWGRGTLVTVSS VL: DIQLTQSPSSLSASVGDRVTITCRASQGILNCLAWYQQKPGKVPNLLMYAASTLQSGVPSRFSGSGFGTDFTLTISSLQPEDVATYYCQTYGGVSTFGGGTKVEIR ?
## Output 4960
